Target: Tyrosine--tRNA ligase (Staphylococcus aureus)
Assay: Compound was tested for inhibition of Staphylococcus aureus tyrosyl tRNA Synthetase
PARAMETER_MEASURED: pIC50
To interpret pIC50, take it as minus log10 of a concentration measured in moles per litre.

In the examples that follow, each entry is paired with its recorded pIC50.
N[C@@H](Cc1ccc(O)cc1)C(=O)NC(C(=O)O)c1ccccc1F (stereo partly specified) = 5.11
N[C@@H](Cc1ccc(O)cc1)C(=O)N[C@H](C(=O)O)c1ccc(O)c(O)c1 = 4.96
N[C@@H](Cc1ccc(O)cc1)C(=O)N[C@H](C(=O)O)c1ccccc1 = 6.05
N[C@@H](Cc1ccc(O)cc1)C(=O)NC(C(=O)O)c1ccccc1O (stereo partly specified) = 6.10
COC(=O)C(NC(=O)[C@@H](N)Cc1ccc(O)cc1)c1ccccc1O (stereo partly specified) = 5.92

Record N[C@@H](Cc1ccc(O)cc1)C(=O)NC(C(=O)O)c1cccc(O)c1 (stereo partly specified) . Reported pIC50: 5.47
